Reference source for all entries: patent US7915291B2

Listing of entries alongside the reported EC50.
tested on: HCV replicon in Huh7 cells; experiment: HCV replicon cell-based assay; design: species or system HCV strain 1B; conditions: Hepatitis C virus, Huh-7; HCV replicon, Huh7 cells; read-out: EC50 range

MOLECULE | EC50
C=C[C@@H]1C[C@]1(NC(=O)[C@@H]1CC(Oc2nccc3cc(OC)ccc23)CN1C(=O)[C@@H](NC(=O)N(C)C(C)(C)C)C(C)(C)C)C(=O)NS(=O)(=O)C1CC1 (some centres unmarked) | 100 to 1000 nM
C=C[C@@H]1C[C@]1(NC(=O)[C@@H]1C[C@@H](Oc2cncc(-c3ccccc3)c2)CN1C(=O)[C@@H](NC(=O)OC(C)(C)C)C(C)(C)C)C(=O)NS(=O)(=O)C1CC1 | 100 to 1000 nM
C=C[C@@H]1C[C@]1(NC(=O)[C@@H]1C[C@@H](Oc2nccc3cc(OC)ccc23)CN1C(=O)[C@@H](NC(=O)OC(C)(C)C)C(C)(C)C)C(=O)NS(=O)(=O)C1CC1 | < 100 nM
C=C[C@@H]1C[C@]1(NC(=O)[C@@H]1C[C@@H](Oc2cc(-c3ccccn3)nc3cc(OC)ccc23)CN1C(=O)[C@@H](NC(=O)OC(C)(C)C)C(C)(C)C)C(=O)NS(=O)(=O)C1CC1 | < 100 nM
C=CC1C[C@]1(NC(=O)[C@@H]1C[C@@H](Oc2cc(C(F)(F)F)nc3ccccc23)CN1C(=O)[C@@H](NC(=O)OC(C)(C)C)C(C)(C)C)C(=O)NS(=O)(=O)C1CC1 (some centres unmarked) | 100 to 1000 nM

###

List of EC50 values.
test system: HCV replicon in Huh7 cells; assay: HCV replicon cell-based assay; design: species or system HCV strain 1B; conditions: Hepatitis C virus, Huh-7; HCV replicon, Huh7 cells; read-out: EC50 range

MOLECULE | EC50
C=CC1C[C@]1(NC(=O)[C@@H]1C[C@@H](Oc2ccnc3cc(C(F)(F)F)ccc23)CN1C(=O)[C@@H](NC(=O)OC(C)(C)C)C(C)(C)C)C(=O)NS(=O)(=O)C1CC1 (stereo partly shown) | < 100 nM
C=C[C@@H]1C[C@]1(NC(=O)[C@@H]1CC(Oc2nccc3cc(OC)ccc23)CN1C(=O)[C@@H](NC(N)=O)C(C)(C)C)C(=O)NS(=O)(=O)C1CC1 (stereo partly shown) | 1000 to 10000 nM
C=C[C@@H]1C[C@]1(NC(=O)[C@@H]1C[C@@H](Oc2nccc3ccccc23)CN1C(=O)[C@@H](NC(=O)OCC(C)(C)C)C(C)(C)C)C(=O)NS(=O)(=O)C1CC1 | < 100 nM
CC[C@@H]1C[C@]1(NC(=O)[C@@H]1C[C@@H](Oc2nccc3cc(OC)ccc23)CN1C(=O)[C@@H](NC(=O)OC(C)(C)C)C(C)(C)C)C(=O)NS(=O)(=O)C(C)C | 1000 to 10000 nM
C=C[C@@H]1C[C@]1(NC(=O)[C@@H]1C[C@@H](Oc2nccc3cc(OC)ccc23)CN1C(=O)[C@@H](NC(=O)OC(C)(C)C)C1CCCCC1)C(=O)NS(=O)(=O)C1CC1 | < 100 nM
CC[C@@H]1C[C@]1(NC(=O)[C@@H]1C[C@@H](Oc2nccc3c4c(ccc23)OCCO4)CN1C(=O)[C@@H](NC(=O)OC(C)(C)C)C(C)(C)C)C(=O)NS(=O)(=O)C1CC1 | < 100 nM
C=C[C@@H]1C[C@]1(NC(=O)[C@@H]1C[C@@H](Oc2nccc3cc(OC)ccc23)CN1C(=O)[C@@H](NC(=O)NC(C)(C)C)C(C)(C)C)C(=O)NS(=O)(=O)C1CCC1 | < 100 nM
C=C[C@@H]1C[C@]1(NC(=O)[C@@H]1C[C@@H](Oc2ccnc3cc(OC)ccc23)CN1C(=O)[C@@H](NC(=O)OC(C)(C)C)C(C)(C)C)C(=O)NS(=O)(=O)C1CCC1 | 100 to 1000 nM
C=C[C@@H]1C[C@]1(NC(=O)[C@@H]1CC(Oc2nccc3cc(OC)ccc23)CN1C(=O)[C@@H](NC(=O)OC(C)(C)C)[C@@H](C)O)C(=O)NS(=O)(=O)C1CC1 (stereo partly shown) | 100 to 1000 nM
C=C[C@@H]1C[C@]1(NC(=O)[C@@H]1CC(Oc2nccc3cc(OC)ccc23)CN1C(=O)[C@@H](NC(=O)NC(C)(C)CC(C)(C)C)C(C)(C)C)C(=O)NS(=O)(=O)C1CC1 (stereo partly shown) | 100 to 1000 nM

###

system: HCV replicon in Huh7 cells; test: HCV replicon cell-based assay; set-up: species or system HCV strain 1B; details: Hepatitis C virus, Huh-7; HCV replicon, Huh7 cells; read-out: EC50 range
pEC50: −log10 of the molar value.

MOLECULE | pEC50
C=C[C@@H]1CC1(NC(=O)[C@@H]1CC(Oc2nccc3cc(OC)ccc23)CN1C(=O)[C@@H](NC(=O)NC1CCCC1)C(C)(C)C)C(=O)NS(=O)(=O)C1CC1 (stereo partly shown) | > 7.00
C=C[C@@H]1C[C@]1(NC(=O)[C@@H]1C[C@@H](Oc2nccc3c2ccc2ccoc23)CN1C(=O)[C@@H](NC(=O)OC(C)(C)C)C(C)(C)C)C(=O)NS(=O)(=O)C1CC1 | > 7.00
C=C[C@@H]1C[C@]1(NC(=O)[C@@H]1C[C@@H](Oc2nccc3cc(OC)ccc23)CN1C(=O)[C@@H](NC(=O)N[C@H](C(=O)OC(C)(C)C)C(C)C)C(C)(C)C)C(=O)NS(=O)(=O)C1CC1 | > 7.00
C=C[C@@H]1C[C@]1(NC(=O)[C@@H]1C[C@@H](Oc2nccc3c(Cl)c(OC)ccc23)CN1C(=O)[C@@H](NC(=O)OC(C)(C)C)C(C)(C)C)C(=O)NS(=O)(=O)C1CC1 | > 7.00
C=C[C@@H]1C[C@]1(NC(=O)[C@@H]1C[C@@H](Oc2nccc3cc(OC)ccc23)CN1C(=O)[C@@H](NC(=O)N[C@H](C(=O)OC)[C@@H](C)CC)C(C)(C)C)C(=O)NS(=O)(=O)C1CC1 | > 7.00
C=C[C@@H]1CC1(NC(=O)[C@@H]1CC(Oc2nccc3cc(OC)ccc23)CN1C(=O)[C@@H](NC(=O)O[C@H]1C[C@@H](C)CC[C@@H]1C(C)C)C(C)(C)C)C(=O)NS(=O)(=O)C1CC1 (stereo partly shown) | 6.00 to 7.00
C=C[C@@H]1C[C@]1(NC(=O)[C@@H]1C[C@@H](Oc2nccc3cc(OC)ccc23)CN1C(=O)[C@@H](NC(=O)OC(C)(C)C)C(C)C)C(=O)NS(=O)(=O)C1CC1 | > 7.00
C=C[C@@H]1C[C@]1(NC(=O)[C@@H]1C[C@@H](Oc2nc(OC)cc3ccccc23)CN1C(=O)[C@@H](NC(=O)OC(C)(C)C)C(C)(C)C)C(=O)NS(=O)(=O)C1CC1 | > 7.00
C=C[C@@H]1C[C@]1(NC(=O)[C@@H]1C[C@@H](Oc2ccnc(-c3ccc(F)cc3)c2)CN1C(=O)[C@@H](NC(=O)OC1CCCC1)C(C)(C)C)C(=O)NS(=O)(=O)C1CC1 | 6.00 to 7.00
CC[C@@H]1C[C@]1(NC(=O)[C@@H]1C[C@@H](Oc2nccc3c4c(ccc23)OC(F)(F)O4)CN1C(=O)[C@@H](NC(=O)OC(C)(C)C)C(C)(C)C)C(=O)NS(=O)(=O)C1CC1 | 6.00 to 7.00

###

target: HCV NS3/4A protease complex, BMS strain (UniProt P27958, C1454S/C1711G, species not given/STRAIN_BMS); experiment: Recombinant HCV NS3/4A protease complex FRET peptide assay (BMS strain); format: biochemical, HCV genotype 1a; settings: read-out: IC50 range; NS3/4A BMS strain
Catalogue of IC50 readings, one per entry.
QUANTITY MEASURED: IC50

COMPOUND | VALUE
C=C[C@@H]1CC1(NC(=O)[C@@H]1CC(Oc2nccc3cc(OC)ccc23)CN1C(=O)[C@@H](NC(=O)CC1CC1)C(C)(C)C)C(=O)NS(=O)(=O)C1CC1 (some centres unmarked) [Compound 58] | < 100 nM
C=C[C@@H]1C[C@]1(NC(=O)[C@@H]1C[C@@H](Oc2nccc3cc(OC)ccc23)CN1C(=O)[C@@H](N)[C@H](C)OC)C(=O)NS(=O)(=O)C1CC1 [Compound 100] | 100 to 1000 nM
C=CC1CC1(NC(=O)C1CC(Oc2nccc3cc(OC)ccc23)CN1C(=O)C(NC)C(C)CC)C(=O)NS(=O)(=O)C1CC1 (centres unmarked) [Compound 99] | 1000 to 10000 nM
C=C[C@@H]1C[C@]1(NC(=O)[C@@H]1C[C@@H](Oc2nccc3cc(OC)ccc23)CN1C(=O)[C@@H](NC(=O)OC(C)(C)CC)[C@H](C)OC)C(=O)NS(=O)(=O)C1CC1 [Compound 105] | < 100 nM
C=C[C@@H]1C[C@]1(NC(=O)[C@@H]1C[C@@H](Oc2cc(-c3csc(NC(C)C)n3)nc3cc(OC)ccc23)CN1C(=O)[C@@H](NC(=O)OC(C)(C)C)C(C)(C)C)C(=O)NS(=O)(=O)C1CC1 [Compound 370] | 100 to 1000 nM
